Recorded values, source patent US20200031927A1.

# System tested: T1, soluble KIR3DL1*002-Fc (human, UniProt P43629 22-338)
# T1 construct: also called KIR3DL1 allele 002; Allele 002; not shown: Fc domain
# T1 sequence (P43629 other isoform, or with tags, fused parts or gaps): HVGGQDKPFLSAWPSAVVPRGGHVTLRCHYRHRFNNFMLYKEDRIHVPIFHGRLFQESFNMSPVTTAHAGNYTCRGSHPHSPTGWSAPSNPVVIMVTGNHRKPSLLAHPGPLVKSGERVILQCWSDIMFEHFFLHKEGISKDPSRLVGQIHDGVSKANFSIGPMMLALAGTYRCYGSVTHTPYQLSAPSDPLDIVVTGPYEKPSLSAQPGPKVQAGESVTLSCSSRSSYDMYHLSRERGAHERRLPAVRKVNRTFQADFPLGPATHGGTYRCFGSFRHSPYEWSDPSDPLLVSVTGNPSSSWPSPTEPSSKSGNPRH
# Assay text: BLI (ForteBio QK), hIgG1
Property name: pKd
Scale: negative log10 of molar concentration, which is what pKd denotes.

stdin: Name the recorded pKd for ET160-77 (antibody, human IgG1, V domains shown, Tested as human IgG1 (hIgG1), lambda light chain) VH: EVQLVETGGGLVKPGGSLRLSCAASGFTFSDYYMSWIRQAPGKGLEWVSYISSSSSYTNYADSVKGRFTISRDNAKNSLYLQMNSLRAEDTAVYYCAREGIAAADAFDIWGQGTMVTVSS VL: SYELTQPPSVSVAPGQAATITCAGDNIESKSVNWYQQKPGQAPVLVVYDDTVRPSGIPERFSGSNSGNPATLTISRSEAGDEADYYCQVWDNRRDHVVFGGGTKVTVLG .
stdout: 7.96
